Where a name gives a salt, the structure may show the parent alone.

[
  {
    "COMPOUND": "Cc1cnc2ccc3c(c2c1)OC(CN1CC=C(c2c[nH]c4ccccc24)CC1)CO3 (stereo not drawn)",
    "melting point": "211 to 213 °C"
  },
  {
    "COMPOUND": "Cc1ccc2c3c(ccc2n1)OCC(CN1CCC(Cc2c[nH]c4ccc(F)cc24)CC1)O3 (stereo not drawn)",
    "melting point": "91 to 92 °C"
  },
  {
    "COMPOUND": "Cc1ccc2[nH]cc(C3=CCN(CC4COc5ccc6nc(C)ccc6c5O4)CC3)c2c1 (stereo not drawn) (as salt: fumarate) (hydrate or solvate)",
    "melting point": "150 to 155 °C"
  }
]
